- experimentalTarget: Cytochrome P450 2D6 (Homo sapiens)
- method: Cytochrome panel assay with activity outcomes
- conditionContext: recombinant CYP, pro-luciferin dealkylation, luminescence, p450-cyp2d6; series mostly up to 57.1 µM
Screen size: about 16,000 compounds; about 2,600 (16%) were called active. Roughly 20% stayed inconclusive and do not appear here. Calls follow the shape of the dose curve; as a rule, active = well fitted curve in the direction sought with a large enough effect; inconclusive = small, poorly fitted or top-dose-only effect, or effect the other way; inactive = no such curve, though single readings can be large or run the other way. Only a sample is shown.
Possible outcomes: True (active), False (inactive)

[[record]]
compound = "CN(C)CCCc1cc(C(=O)Nc2ccc(-c3ccncc3)cc2)ccc1O"
labelvalue = "True"

[[record]]
compound = "CCN(C(=O)Cn1c(=O)oc2ccccc21)c1cccc(C(F)(F)F)c1"
labelvalue = "False"

[[record]]
compound = "O=C(NC1CCCc2ccccc21)c1ccc(=O)[nH]c1 (stereo unspecified)"
labelvalue = "True"

[[record]]
compound = "CCCn1nc2cc(C(=O)NCc3ccccc3OC)ccc2c1OCC"
labelvalue = "False"

[[record]]
compound = "COc1cccc2c1C(=O)c1c(O)c3c(c(O)c1C2=O)C[C@](O)(C(=O)CO)C[C@H]3O[C@@H]1C[C@H](N)[C@H](O)[C@H](C)O1"
labelvalue = "False"

[[record]]
compound = "Cc1ccc(C(=O)Nc2ccc3nccnc3c2)cc1"
labelvalue = "False"


====

- experimentalTarget: Cytochrome P450 2D6 (Homo sapiens) (UniProt P10635)
- Sequence (P10635 whole entry, looked up): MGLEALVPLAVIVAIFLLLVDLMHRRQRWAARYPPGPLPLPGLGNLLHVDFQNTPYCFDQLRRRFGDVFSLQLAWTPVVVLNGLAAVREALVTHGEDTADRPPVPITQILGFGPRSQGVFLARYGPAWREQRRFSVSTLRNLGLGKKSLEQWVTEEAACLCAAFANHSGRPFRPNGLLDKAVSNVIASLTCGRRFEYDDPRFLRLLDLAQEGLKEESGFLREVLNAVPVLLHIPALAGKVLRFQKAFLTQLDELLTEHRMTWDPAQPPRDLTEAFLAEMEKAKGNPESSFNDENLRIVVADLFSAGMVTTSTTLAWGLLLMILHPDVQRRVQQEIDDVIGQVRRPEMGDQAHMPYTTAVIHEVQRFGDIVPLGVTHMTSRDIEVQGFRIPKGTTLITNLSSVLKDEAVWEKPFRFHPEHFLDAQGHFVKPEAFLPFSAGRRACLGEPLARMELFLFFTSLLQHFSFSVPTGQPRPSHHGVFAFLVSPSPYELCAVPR
- method: Cytochrome panel assay with activity outcomes
- conditionContext: recombinant CYP, pro-luciferin dealkylation, luminescence, p450-cyp2d6; series mostly up to 57.1 µM
- Description: The P450 gene superfamily is involved in the metabolism and clearance of xenobiotics. This assay used various human CYP P450 isozymes to measure the dealkylation of various pro-luciferin substrates to luciferin. The luciferin is then measured by luminescence after the addition of a luciferase detection reagent. […] Inhibitors and some substrates limit the production of luciferin, and decrease measured luminescence. […] 8, Detection, 1 sec, ViewLux luminescent read […]
Among all 16,000 compounds or so, about 2,600 (16%) were called active. Roughly 20% stayed inconclusive and do not appear here. Calls follow the shape of the dose curve; as a rule, active = well fitted curve in the direction sought with a large enough effect; inconclusive = small, poorly fitted or top-dose-only effect, or effect the other way; inactive = no such curve, though single readings can be large or run the other way. The list is a sample of the results.
Possible outcomes: active, inactive

[[record]]
compound = "COC(=O)[C@H](C)[C@H]1C[C@]1(C)[C@H](NC(=O)OCc1ccccc1)c1ccccc1"
labelvalue = "inactive"

[[record]]
compound = "COCCn1c(=O)c(-c2cccs2)nc2cnc(Oc3ccccc3)nc21"
labelvalue = "inactive"

[[record]]
compound = "CO[C@]1(NC(=O)CSCC#N)C(=O)N2C(C(=O)O)=C(CSc3nnnn3C)CS[C@H]21"
labelvalue = "inactive"

[[record]]
compound = "COc1ccccc1-c1cncnc1NCCc1cnc[nH]1"
labelvalue = "active"

[[record]]
compound = "CCOC(=O)C(Sc1ncnc2c1sc1nc(N3CCOCC3)c3c(c12)CCCC3)c1ccccc1 (centres undefined)"
labelvalue = "inactive"

[[record]]
compound = "Cc1cnc(NC(=O)CSc2ccc(Cl)cc2)s1"
labelvalue = "active"

[[record]]
compound = "C=CCN1CCc2cc(O)c(O)cc2[C@H](c2ccccc2)C1"
labelvalue = "active"

[[record]]
compound = "CN1CCc2cc(Cl)c(O)cc2[C@H](c2ccccc2)C1"
labelvalue = "active"

[[record]]
compound = "O=C(c1cccc(F)c1)N1CCC2(CC1)CCN(C(c1ccccc1)c1ccccc1)CC2"
labelvalue = "active"

[[record]]
compound = "CCCCc1ccc(-c2nc(NC(=O)C3C4CCC(O4)C3C(=O)O)sc2C)cc1 (centres undefined)"
labelvalue = "inactive"

[[record]]
compound = "Clc1ccc2[nH]cc(-c3nnnn3-c3ccccc3)c2c1"
labelvalue = "active"

[[record]]
compound = "FC(F)(F)c1ccccc1-c1cncnc1NCCc1cnc[nH]1"
labelvalue = "active"

[[record]]
compound = "COc1ccc(NC(=O)NCCCN2CCCCC2C)cc1 (centres undefined)"
labelvalue = "active"

[[record]]
compound = "C[C@@H](C(=O)NCc1cccc2ccccc12)[C@H]1C[C@]1(C)[C@H](NC(=O)OCc1ccccc1)c1ccccc1"
labelvalue = "inactive"

[[record]]
compound = "COC(=O)c1ccc(-n2cncn2)c(F)c1"
labelvalue = "inactive"

[[record]]
compound = "CC(=O)NCCNc1ncncc1-c1ccccc1C(F)(F)F"
labelvalue = "inactive"

[[record]]
compound = "O=C(N[C@@H](c1ccccc1)[C@@H]1C[C@H]1C(=O)O)OCc1ccccc1"
labelvalue = "inactive"

[[record]]
compound = "CC1(C)CC(NC(=O)c2ccc3c(c2)OCO3)CC(C)(C)N1"
labelvalue = "inactive"

[[record]]
compound = "CCN1CCCC1CNC(=O)C(=O)Nc1ccc(OC)cc1 (centres undefined)"
labelvalue = "inactive"

[[record]]
compound = "CCOc1cc(/C=N/NC(=O)CNc2cccc(C)c2)ccc1OC(=O)c1ccccc1"
labelvalue = "inactive"

[[record]]
compound = "Cc1ccc(-n2nnnc2-c2cnc3ccc(Cl)cc3c2-c2ccccc2)cc1"
labelvalue = "inactive"

[[record]]
compound = "COCCNc1ncncc1-c1c(C)noc1C"
labelvalue = "inactive"

[[record]]
compound = "CN(C)c1ncc2nc(-c3cccs3)c(=O)n(-c3ccccc3)c2n1"
labelvalue = "inactive"

[[record]]
compound = "CCc1nnc(NC(=O)c2cc(-c3ccccc3)nn2-c2ccccc2)s1"
labelvalue = "inactive"

[[record]]
compound = "C=CCC(C(=O)OC)(C(=O)OC)c1ccc([N+](=O)[O-])cn1"
labelvalue = "inactive"

[[record]]
compound = "Cc1noc(C)c1-c1nc(Nc2ccc(F)cc2)c2ccccc2n1"
labelvalue = "inactive"

[[record]]
compound = "C[C@@H](C(=O)NCCc1c[nH]c2ccccc12)[C@H]1C[C@]1(C)[C@H](NC(=O)OCc1ccccc1)c1ccccc1"
labelvalue = "active"

[[record]]
compound = "O=C(c1ccncc1)N1CCC2(CC1)CCN(C(c1ccccc1)c1ccccc1)CC2"
labelvalue = "active"

[[record]]
compound = "Cn1cccc1C(=O)N1CCC2(CC1)CN(C(c1ccccc1)c1ccccc1)C2"
labelvalue = "active"

[[record]]
compound = "COCc1nnc(NC(=O)CSc2ccc(C)cc2)s1"
labelvalue = "inactive"

[[record]]
compound = "CCOC(=O)C1=C(CSc2nc(-c3ccccc3)ccc2C#N)OC(N)=C(C#N)C1c1ccc(OC)cc1 (centres undefined)"
labelvalue = "inactive"

[[record]]
compound = "C[C@@H](C(=O)NCCF)[C@H]1C[C@]1(C)[C@H](NC(=O)OCc1ccccc1)c1ccccc1"
labelvalue = "active"

[[record]]
compound = "CCOC(=O)c1ccc(Nc2nc(=O)c3cccnc3s2)cc1"
labelvalue = "inactive"

[[record]]
compound = "CC(C)Cn1c(-c2ccc(Cl)cc2)cnc1SCC(=O)N1CCOCC1"
labelvalue = "inactive"

[[record]]
compound = "Cc1ccc(NC2c3ncccc3C(=O)N2Cc2ccc(F)cc2)cc1 (centres undefined)"
labelvalue = "inactive"

[[record]]
compound = "COc1cccc(-c2cc(NCc3cccs3)ncn2)c1"
labelvalue = "active"

[[record]]
compound = "O=C(c1cc(C(F)(F)F)cc(C(F)(F)F)c1)N1CCC2(CC1)CCN(c1ncccn1)CC2"
labelvalue = "inactive"

[[record]]
compound = "O=c1c(-c2ccccc2)nc2cncnc2n1C1CC1"
labelvalue = "inactive"

[[record]]
compound = "C=CCN1CCc2c(cc(O)c(O)c2Br)[C@H](c2ccccc2)C1"
labelvalue = "active"

[[record]]
compound = "CC(C)=CCC/C(C)=C/CC/C(C)=C/CSc1ccccc1C(=O)O"
labelvalue = "inactive"

[[record]]
compound = "CCOC(=O)CC(NC(=O)c1ccc(C)cc1)c1ccc(C)cc1 (centres undefined)"
labelvalue = "inactive"

[[record]]
compound = "Fc1ccc(-c2[nH]ncc2-c2nnnn2-c2ccccc2)c(F)c1"
labelvalue = "inactive"

[[record]]
compound = "CCOC(=O)c1ccc(Nc2nc(C(=O)OCC)nc3ccccc23)cc1"
labelvalue = "active"

[[record]]
compound = "OCCNCCCOc1cccc(Cl)c1Cl"
labelvalue = "active"


// provenance: PubChem BioAssay AID1851
